system: ER-α in MCF-7 cells (Homo sapiens, UniProt P03372)
Construct: endogenous in cells; host or cells: MCF-7
Sequence (P03372 whole entry): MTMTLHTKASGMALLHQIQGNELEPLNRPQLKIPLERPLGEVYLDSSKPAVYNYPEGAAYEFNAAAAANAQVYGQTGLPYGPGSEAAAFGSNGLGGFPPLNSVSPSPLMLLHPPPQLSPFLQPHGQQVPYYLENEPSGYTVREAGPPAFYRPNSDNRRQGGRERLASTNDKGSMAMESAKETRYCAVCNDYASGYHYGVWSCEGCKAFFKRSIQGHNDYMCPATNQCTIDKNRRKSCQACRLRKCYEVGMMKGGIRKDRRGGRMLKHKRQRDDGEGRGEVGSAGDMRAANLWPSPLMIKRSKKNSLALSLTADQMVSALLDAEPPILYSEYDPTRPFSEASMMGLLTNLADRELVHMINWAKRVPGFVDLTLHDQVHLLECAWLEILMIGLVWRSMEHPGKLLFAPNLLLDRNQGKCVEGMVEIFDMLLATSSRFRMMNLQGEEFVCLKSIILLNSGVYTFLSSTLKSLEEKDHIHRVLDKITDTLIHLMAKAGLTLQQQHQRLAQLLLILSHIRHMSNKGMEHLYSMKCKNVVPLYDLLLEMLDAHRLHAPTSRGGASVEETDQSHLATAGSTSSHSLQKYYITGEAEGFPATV
protocol-summary: Breast Cancer Cell ER-α In Cell Western Assay (SP1)
Format: cell-based
condition-details: SP1 antibody, 4 or 24 hr post compound addition, read-out: ER-α In Cell Western Assay (SP1) IC50
# DC50 listing for each entry below
assay-endpoint: DC50

molecular-string: COc1cc(C)c(/C(=C(\c2ccc(/C=C/C(=O)O)cc2)c2cccc3[nH]ncc23)C2CCC2)cn1
assay-endpoint: DC50
reading: ≤ 100 nM

molecular-string: O=C(O)/C=C/c1ccc(/C(=C(\c2ccc(F)cc2Cl)C2CCC2)c2ccc3[nH]nc(F)c3c2)cn1
assay-endpoint: DC50
reading: ≤ 100 nM

molecular-string: Cc1cscc1/C(=C(\c1ccc(/C=C/C(=O)NCCO)cc1)c1ccc2[nH]nc(F)c2c1)C1CCC1
assay-endpoint: DC50
reading: ≤ 100 nM

molecular-string: N#Cc1c(/C(=C(/c2ccc(F)cc2Cl)C2CCC2)c2ccc(/C=C/C(=O)O)cc2)ccc2nccn12
assay-endpoint: DC50
reading: ≤ 100 nM

molecular-string: O=C(O)/C=C/c1ccc(/C(=C(\c2cccnc2)C2CCC2)c2ccc3[nH]nc(F)c3c2)cc1
assay-endpoint: DC50
reading: ≤ 100 nM

molecular-string: O=C(O)/C=C/c1ccc(/C(=C(\c2ccccc2)C2CCC2)c2ccc3c(c2)CNC3=O)cc1
assay-endpoint: DC50
reading: ≤ 100 nM

molecular-string: COc1ccc(/C(=C(\c2ccc(/C=C/C(=O)O)cc2)c2ccc3[nH]ncc3c2)C2CCC2)c(C#N)c1
assay-endpoint: DC50
reading: ≤ 100 nM
